# Test system: BaF3-TEL-EGFR-T790M (stably expressing EGFR T790M mutant kinase)
# Method: Cell growth, Cell Titer-Glo, 72 h: BaF3-TEL-EGFR-T790M
# Assay type: cell-based
# Settings: Mus musculus, BaF3-TEL-EGFR-T790M cells, read-out: GI50
Value type: GI50

| Compound | GI50 |
| --- | --- |
| C=CC(=O)N1CCC[C@@H](n2nc(-c3ccc(OCc4ccccc4)c(F)c3)c3c(N)ncnc32)C1 [Compound 12] | < 0.3 nM |
| C=CC(=O)Nc1cccc(Nc2nc(Nc3ccc(N4CCN(C(C)=O)CC4)cc3OC)ncc2C(F)(F)F)c1 [CO-1686, reference compound] | 130 nM |
| C=CC(=O)N1CCC[C@@H](n2nc(-c3ccc(OCc4cccc(C)n4)c(Cl)c3)c3c(N)ncnc32)C1 [Compound 29] | < 0.3 nM |
| CCC(=O)N1CCC[C@@H](n2nc(-c3ccc(OCc4cccc(F)c4)c(Cl)c3)c3c(N)ncnc32)C1 [Compound 51] | 1100 nM |

## Task Quick check: GI50 of C=CC(=O)N1CCC[C@@H](n2nc(-c3ccc(OCc4cccc(F)c4)c(F)c3)c3c(N)ncnc32)C1 [Compound 13] ?
## Result < 0.3 nM

---

# Test system: A549 (expressing wild-type EGFR gene)
# Method: Cancer cell growth, Cell Titer-Glo, 72 h: A549
# Format: cell-based
# Settings: Homo sapiens; A549 cells, 72 h; read-out: GI50
Value type: GI50

| Compound | GI50 |
| --- | --- |
| C=CC(=O)N1CCC[C@@H](n2nc(-c3ccc(CN4CCN(C)CC4)cc3)c3c(N)ncnc32)C1 [Compound 20] | > 10 µM |

## Task Quick check: GI50 of CN(C)C/C=C/C(=O)N1CCC[C@@H](n2nc(-c3ccc(F)c(Cl)c3)c3c(N)ncnc32)C1 [Compound 32] ?
## Result > 10 µM

## Task Another compound: C=CC(=O)Nc1cc(Cn2nc(-c3ccc(F)c(Cl)c3)c3c(N)ncnc32)ccc1F [Compound 38]
## Result 2.8 µM

---

# System: A549 (expressing wild-type EGFR gene)
# Method: Cancer cell growth, Cell Titer-Glo, 72 h: A549
# Format: cell-based
# Settings: Homo sapiens; A549 cells, 72 h; read-out: GI50
Value type: GI50 (µM)
A number alone suffices; assume µM.

Examples with their reported GI50 follow.
| Molecule | System tested | Measured result |
| --- | --- | --- |
| C=CC(=O)N1CC[C@@H](n2nc(-c3ccc(OCc4cccc(F)c4)c(Cl)c3)c3c(N)ncnc32)C1 [Compound 4] | A549 (expressing wild-type EGFR gene) | 3.7 |
| C=CC(=O)N1CCC[C@@H](n2nc(-c3ccc(OCc4cccc(F)c4)c(F)c3)c3c(N)ncnc32)C1 [Compound 13] | A549 (expressing wild-type EGFR gene) | 7 |
| C=CC(=O)N1CCC[C@@H](n2nc(-c3ccc(OCc4cccc(F)c4)c(OC)c3)c3c(N)ncnc32)C1 [Compound 8] | A549 (expressing wild-type EGFR gene) | 2.7 |
| C=CC(=O)N1CCC[C@@H](n2nc(-c3ccc(OCc4ncc(C)c(OC)c4C)c(Cl)c3)c3c(N)ncnc32)C1 [Compound 36] | A549 (expressing wild-type EGFR gene) | 3.4 |
| C=CC(=O)N1CCC[C@@H](n2nc(-c3ccc(OCc4ccccn4)c(C(F)(F)F)c3)c3c(N)ncnc32)C1 [Compound 35] | A549 (expressing wild-type EGFR gene) | 3.1 |

## Task Quick check: GI50 of C=CC(=O)Nc1cccc(Nc2nc(Nc3ccc(N4CCN(C(C)=O)CC4)cc3OC)ncc2C(F)(F)F)c1 [CO-1686, reference compound] ?
## Result 0.83

## Task Another molecule: C=CC(=O)N1CCC[C@@H](n2nc(-c3ccc(OCc4ccccc4)c(F)c3)c3c(N)ncnc32)C1 [Compound 12]
## Result 4.3

## Task Another molecule: C=CC(=O)N1CCC[C@@H](n2nc(-c3ccc(OCc4cc(F)ccc4F)c(Cl)c3)c3c(N)ncnc32)C1 [Compound 23]
## Result 3.8

---

# Test system: NCI-H3255 (expressing EGFR L858R mutant gene)
# Method: Cancer cell growth, Cell Titer-Glo, 72 h: NCI-H3255
# Assay type: cell-based
# Settings: Homo sapiens; NCI-H3255 cells, 72 h; read-out: GI50
Recorded measurements of log10 of GI50, one per entry
// units: nM (pre-log); metric: GI50; scale: log10

Examples with their reported log10 of GI50 follow.
| Molecule | Measured result |
| --- | --- |
| C=CC(=O)N1CCC[C@@H](n2nc(-c3ccc(OCc4cccc(F)c4)c(F)c3)c3c(N)ncnc32)C1 | 1.18 |
| C=CC(=O)N1CCC[C@@H](n2nc(-c3ccc(OCc4ccc(C)nc4)c(Cl)c3)c3c(N)ncnc32)C1 | 1.56 |
| C=CC(=O)N1CC[C@@H](n2nc(-c3ccc(OCc4cccc(F)c4)c(Cl)c3)c3c(N)ncnc32)C1 | 1.45 |

## Task Quick check: log10 of GI50 of C=CC(=O)N1CCC[C@@H](n2nc(-c3ccc(OCc4cccc(F)c4)c(C)c3)c3c(N)ncnc32)C1 ?
## Result 0.95

---

# System: BaF3-TEL-EGFR (stably expressing wild-type EGFR kinase)
# Method: Cell growth, Cell Titer-Glo, 72 h: BaF3-TEL-EGFR
# Type: cell-based
# Settings: Mus musculus, BaF3-TEL-EGFR cells, read-out: GI50
# Description: […] The cells were incubated for 72 h, and then the number of viable cells was determined via quantitative determination with a microplate reader by using Cell Titer-Glo® (Promega, the USA) Luminescent Cell Viability Assay kit.
Rule: GI50 below 3000 nM gives 1, anything at or above gives -1.

Here's what some known entries look like.
| Compound | System tested | Group label |
| --- | --- | --- |
| C=CC(=O)N1CCC[C@@H](n2nc(-c3ccc(OCc4cccc(F)c4)c(C#N)c3)c3c(N)ncnc32)C1 [Compound 16] | BaF3-TEL-EGFR (stably expressing wild-type EGFR kinase) | -1 |
| C=CC(=O)N1CCC[C@@H](n2nc(-c3ccc(OCc4cccc(F)c4)c(C)c3)c3c(N)ncnc32)C1 [Compound 14] | BaF3-TEL-EGFR (stably expressing wild-type EGFR kinase) | 1 |
| CN(C)C/C=C/C(=O)N1CCC[C@@H](n2nc(-c3ccc(F)c(Cl)c3)c3c(N)ncnc32)C1 [Compound 32] | BaF3-TEL-EGFR (stably expressing wild-type EGFR kinase) | 1 |
| C=CC(=O)Nc1cc(Cn2nc(-c3ccc(F)c(Cl)c3)c3c(N)ncnc32)ccc1N(C)CCN(C)C [Compound 40] | BaF3-TEL-EGFR (stably expressing wild-type EGFR kinase) | 1 |
| C=CC(=O)N1CCC[C@@H](n2nc(-c3ccc(OCc4cccc(C)n4)c(Cl)c3)c3c(N)ncnc32)C1 [Compound 29] | BaF3-TEL-EGFR (stably expressing wild-type EGFR kinase) | -1 |
| C=CC(=O)N1CCC[C@@H](n2nc(-c3ccc(OCc4cccc(F)c4)c(F)c3)c3c(N)ncnc32)C1 [Compound 13] | BaF3-TEL-EGFR (stably expressing wild-type EGFR kinase) | 1 |

## Task Dear reviewer, please state whether CCC(=O)N1CCC[C@@H](n2nc(-c3ccc(OCc4cccc(F)c4)c(Cl)c3)c3c(N)ncnc32)C1 [Compound 51] has GI50 strictly beneath 3000 nM.
## Result -1

## Task Another compound: C=CC(=O)N1CCC[C@@H](n2nc(-c3ccc(OCc4nccs4)c(Cl)c3)c3c(N)ncnc32)C1 [Compound 28]
## Result 1

## Task Another compound: C=CC(=O)N1CCC[C@@H](n2nc(-c3ccc(OCc4ccccn4)c(C(F)(F)F)c3)c3c(N)ncnc32)C1 [Compound 35]
## Result -1

## Task Another compound: C=CC(=O)N1CCC[C@@H](n2nc(-c3ccc(OCc4ccccc4)c(F)c3)c3c(N)ncnc32)C1 [Compound 12]
## Result 1

## Task Another compound: C=CC(=O)N1CCC[C@@H](n2nc(-c3ccc(OCc4ccc(C)nc4)c(Cl)c3)c3c(N)ncnc32)C1 [Compound 30]
## Result -1

## Task Another compound: C=CC(=O)Nc1cc(Cn2nc(-c3ccc(F)c(Cl)c3)c3c(N)ncnc32)ccc1F [Compound 38]
## Result -1

## Task Another compound: C=CC(=O)N1CC[C@@H](n2nc(-c3ccc(OCc4cccc(F)c4)c(Cl)c3)c3c(N)ncnc32)C1 [Compound 4]
## Result 1

## Task Another compound: C=CC(=O)N1CCC[C@@H](n2nc(-c3ccc(OCc4ccccc4F)c(Cl)c3)c3c(N)ncnc32)C1 [Compound 18]
## Result -1

## Task Another compound: C=CC(=O)N1CCC[C@@H](n2nc(-c3ccc(F)c(Cl)c3)c3c(N)ncnc32)C1 [Compound 31]
## Result 1

## Task Another compound: C=CC(=O)Nc1cccc(Nc2nc(Nc3ccc(N4CCN(C(C)=O)CC4)cc3OC)ncc2C(F)(F)F)c1 [CO-1686, reference compound]
## Result 1

## Task Another compound: C=CC(=O)N1CCC[C@@H](n2nc(-c3ccc(OCc4ncc(C)c(OC)c4C)c(Cl)c3)c3c(N)ncnc32)C1 [Compound 36]
## Result -1

Reference source for all entries: patent US10781214B2
